Field: RAM network inhibition. Provide a value for each of the compounds that follow.
test: RAM signaling pathway blockade in yeast – S. cerevisiae, Pdr1DBD-CYC8 efflux-inhibited sensitized strain, primary screen (AID 1298);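 also: 0% = DMSO untreated cells without growth and 100% = 10 µM 1-NA-PP1 full growth; higher means more yeast growth rescued from 5-FOA killing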; details: S. cerevisiae cbk1-as DSE1-URA3 strain, 5-FOA growth OD615, 2 d; at 50 µM; hits give high values
Report the figure in % without appending any unit label.

Please give the measured RAM network inhibition for this compound: CCCCc1cc2c(c(NC(C)=O)n1)c(=O)oc1ccccc12
3.84

Please give the measured RAM network inhibition for this compound: COc1cccc(-c2nnc(NC(C)=O)o2)c1
1.45

Please give the measured RAM network inhibition for this compound: Cc1cc(NS(=O)(=O)c2ccc(NC(=O)COc3ccccc3C(C)C)cc2)no1
4.16

Please give the measured RAM network inhibition for this compound: O=C(Cn1cc2c(n1)CCCCC2)N1CCc2ccccc2C1
6.93

Please give the measured RAM network inhibition for this compound: O=C(CSc1nnc(Cn2c(=O)sc3ccccc32)n1-c1ccccc1)Nc1nccs1
2.05

Please give the measured RAM network inhibition for this compound: COc1ccc(C(C)N2CC34C=CC(O3)C(C(=O)OCC(C)C)C4C2=O)cc1 (stereo unspecified)
4.69

Please give the measured RAM network inhibition for this compound: COc1ccc(S(=O)(=O)Nc2ccc(F)c(Cl)c2)cc1OC
1.81

Please give the measured RAM network inhibition for this compound: COc1cccc(-n2c(Cc3cc(=O)[nH]c(=O)[nH]3)nnc2SC(C)C)c1
3.35

Please give the measured RAM network inhibition for this compound: COc1cc2c(cc1OC)-c1nnc(C)n1C1(CCCC1)C2
2.81

Please give the measured RAM network inhibition for this compound: Cc1ccc(OCCSc2cc(C)nc(N)n2)cc1
0.05

Please give the measured RAM network inhibition for this compound: CC1CN(Cc2nc3c(c(=O)n(C)c(=O)n3C)n2Cc2cccc(Cl)c2)CC(C)O1 (stereo unspecified)
2.81

* * *

Field: RAM network inhibition. Provide a value for each of the compounds that follow.
test: RAM signaling pathway blockade in yeast – S. cerevisiae, Pdr1DBD-CYC8 efflux-inhibited sensitized strain, primary screen (AID 1298);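 also: 0% = DMSO untreated cells without growth and 100% = 10 µM 1-NA-PP1 full growth; higher means more yeast growth rescued from 5-FOA killing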; details: S. cerevisiae cbk1-as DSE1-URA3 strain, 5-FOA growth OD615, 2 d; at 50 µM; hits give high values
Calls of active or inactive are those of the source.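 How the source made its calls: active means RAM network inhibition above 8.4% in each of two replicates, 3 SD over the compound average; inconclusive means above 8.4% inhibition in only one replicate; inactive means 8.4% inhibition or less in each replicate.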

Please give the measured RAM network inhibition for this compound: Cc1c(C(=O)Nc2nnc(C(F)(F)F)s2)oc2ccccc12
4.2% (inactive)

Please give the measured RAM network inhibition for this compound: COc1ccc(NC(=O)C2Cc3ccccc3C(=O)O2)cc1 (stereo not given)
3.16% (inactive)

Please give the measured RAM network inhibition for this compound: CN(CC(=O)N1CCc2ccccc2C1)S(=O)(=O)c1ccc2c(c1)c(=O)n(C)c(=O)n2C
5.95% (inactive)

Please give the measured RAM network inhibition for this compound: CCOC(=O)N1CCN(c2cc(=O)n(-c3cccc(Br)c3)c(=O)[nH]2)CC1
3.07% (inactive)

Please give the measured RAM network inhibition for this compound: CCOC(=O)N1CCN(Cc2nc3c(c(=O)n(C)c(=O)n3C)n2Cc2ccc(F)cc2)CC1
0.36% (inactive)

* * *

test: reduced viability of SK-BR-3 breast cancer cells – cell-based, 24 h, human, pilot screen (AID 572); conditions: SK-BR-3 viability, CellTiter-Glo luminescence, at 10 µM, hits give low values;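 also: compound exposure lasted between 18 and 24 h rather than exactly 24 h; 100% = carrier-treated control wells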
Field: viability. Provide a value for each of the compounds that follow.
Report the figure in % without appending any unit label.

Please give the measured viability for this compound: CC1CCN(C(=O)CSc2nnc(Cc3cc(=O)[nH]c(=O)[nH]3)n2-c2ccc(Cl)cc2)CC1
92.5

Please give the measured viability for this compound: CC1CCc2nn(CC(=O)NCc3ccc4c(c3)OCO4)cc2C1 (stereo not drawn)
86.5

Please give the measured viability for this compound: Cc1ccc(C(=O)CC2(O)C(=O)N(C)c3ccc(Br)cc32)c(C)c1 (stereo not drawn)
85

Please give the measured viability for this compound: COC(=O)Cc1cc(=O)[nH]c(Nc2nc3ccccc3o2)n1
104

Please give the measured viability for this compound: CC1=C(C)CC2C(=O)N(c3cccc4ccccc34)C(=O)C2C1 (stereo not drawn)
104

Please give the measured viability for this compound: O=C(OCCN=C1NS(=O)(=O)c2ccccc21)C1CC(=O)N(c2ccc(Cl)cc2)C1 (stereo not drawn)
114

Please give the measured viability for this compound: CC(C)c1ncc(C(O)c2cccc3ccccc23)n1C (stereo not drawn)
97.5

Please give the measured viability for this compound: CCOC(=O)Cn1c(CCC(=O)O)ccc1-c1ccc(F)cc1
99

Please give the measured viability for this compound: O=c1c(-c2ccccc2)coc2c(CN3CCOCC3)c(O)ccc12
110

Please give the measured viability for this compound: Cc1cc(C)nc(/N=C2\NC(=O)CC(C(=O)O)N2c2ccc(Cl)cc2)n1 (stereo not drawn)
106

Please give the measured viability for this compound: C=C(C)c1cccc(C(C)(C)NC(=O)NCC2CCCO2)c1 (stereo not drawn)
94

Please give the measured viability for this compound: COc1cccc(NC(=O)c2nc3nc(C)cc(C(F)F)n3n2)c1
100

Please give the measured viability for this compound: Cc1[nH]c2ccccc2c(=O)c1CN1CCCCC1
99

Please give the measured viability for this compound: Cc1ccc(N2CCN(S(=O)(=O)N(C)C)CC2)c(C)c1
98.5

Please give the measured viability for this compound: COc1ccccc1NC(=O)CSc1nnc(Cc2cccn2C)n1-c1ccc(F)cc1
96.5

Please give the measured viability for this compound: CC(=O)NCC(=O)N(Cc1ccco1)C1(C(=O)NC2CCCCC2)CCCCC1
140

Please give the measured viability for this compound: COCCCNC(=O)c1ccc(CS(=O)(=O)c2ccc(OC)cc2)o1
104

Please give the measured viability for this compound: Cn1c(=O)cc(NCCc2ccccc2)[nH]c1=O
97

Please give the measured viability for this compound: Cc1ccc(C)c2[nH]c(=O)c(CCNC(=O)c3ccc(S(=O)(=O)N(C)C)cc3)cc12
121

Please give the measured viability for this compound: CC1CCc2nn(CC(=O)N3CCN(C(=O)c4ccco4)CC3)cc2C1 (stereo not drawn)
79.5

Please give the measured viability for this compound: Cc1c(C)c2ccc(OC3CCCCC3=O)cc2oc1=O (stereo not drawn)
100

Please give the measured viability for this compound: CCCCn1c(NCc2ccccc2O)nc2ccccc21
98

Please give the measured viability for this compound: O=C(O)COc1ccc(S(=O)(=O)NCCc2ccccc2)cc1
105
